biological target: POLγ W748S + E1143G (Homo sapiens, UniProt P54098, E1143G/W748S); assay: DNA polymerization assay, W748S + E1143G mutant; type: biochemical; details: stimulation of polymerase activity, primed M13mp18 ssDNA, 37° C. 2 hours
Sequence (P54098 whole entry W748S/E1143G): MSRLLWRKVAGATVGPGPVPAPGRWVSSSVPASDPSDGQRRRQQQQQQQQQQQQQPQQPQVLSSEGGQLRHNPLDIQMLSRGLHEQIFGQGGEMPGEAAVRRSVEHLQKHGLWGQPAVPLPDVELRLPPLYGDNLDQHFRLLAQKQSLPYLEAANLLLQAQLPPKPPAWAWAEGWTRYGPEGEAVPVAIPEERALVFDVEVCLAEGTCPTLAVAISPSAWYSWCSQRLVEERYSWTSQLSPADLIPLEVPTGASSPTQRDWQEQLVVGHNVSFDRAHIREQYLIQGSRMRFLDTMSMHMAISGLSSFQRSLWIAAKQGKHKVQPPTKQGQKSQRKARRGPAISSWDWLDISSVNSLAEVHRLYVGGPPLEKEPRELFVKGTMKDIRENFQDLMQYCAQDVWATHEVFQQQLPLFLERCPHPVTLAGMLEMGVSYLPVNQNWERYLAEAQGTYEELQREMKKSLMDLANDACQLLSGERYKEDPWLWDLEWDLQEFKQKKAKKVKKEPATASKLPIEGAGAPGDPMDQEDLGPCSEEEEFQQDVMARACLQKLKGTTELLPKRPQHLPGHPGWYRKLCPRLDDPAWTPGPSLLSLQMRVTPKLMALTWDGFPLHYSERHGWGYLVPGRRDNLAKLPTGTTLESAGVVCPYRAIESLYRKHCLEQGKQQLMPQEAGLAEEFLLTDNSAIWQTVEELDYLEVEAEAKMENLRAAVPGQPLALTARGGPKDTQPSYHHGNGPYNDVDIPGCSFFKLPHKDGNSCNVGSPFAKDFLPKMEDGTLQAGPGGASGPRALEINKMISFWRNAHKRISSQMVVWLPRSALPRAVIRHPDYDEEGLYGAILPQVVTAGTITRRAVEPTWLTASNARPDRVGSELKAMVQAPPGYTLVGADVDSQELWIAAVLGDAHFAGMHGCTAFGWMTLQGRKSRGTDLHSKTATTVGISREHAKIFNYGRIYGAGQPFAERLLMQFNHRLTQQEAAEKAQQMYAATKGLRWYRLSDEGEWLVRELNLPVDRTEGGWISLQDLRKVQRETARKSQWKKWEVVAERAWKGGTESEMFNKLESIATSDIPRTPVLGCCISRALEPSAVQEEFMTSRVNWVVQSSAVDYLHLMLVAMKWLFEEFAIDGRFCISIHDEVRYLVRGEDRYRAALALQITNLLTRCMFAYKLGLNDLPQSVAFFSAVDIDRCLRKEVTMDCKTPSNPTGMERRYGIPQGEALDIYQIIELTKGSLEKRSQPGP
Sequence (Q9UHN1 whole entry partner): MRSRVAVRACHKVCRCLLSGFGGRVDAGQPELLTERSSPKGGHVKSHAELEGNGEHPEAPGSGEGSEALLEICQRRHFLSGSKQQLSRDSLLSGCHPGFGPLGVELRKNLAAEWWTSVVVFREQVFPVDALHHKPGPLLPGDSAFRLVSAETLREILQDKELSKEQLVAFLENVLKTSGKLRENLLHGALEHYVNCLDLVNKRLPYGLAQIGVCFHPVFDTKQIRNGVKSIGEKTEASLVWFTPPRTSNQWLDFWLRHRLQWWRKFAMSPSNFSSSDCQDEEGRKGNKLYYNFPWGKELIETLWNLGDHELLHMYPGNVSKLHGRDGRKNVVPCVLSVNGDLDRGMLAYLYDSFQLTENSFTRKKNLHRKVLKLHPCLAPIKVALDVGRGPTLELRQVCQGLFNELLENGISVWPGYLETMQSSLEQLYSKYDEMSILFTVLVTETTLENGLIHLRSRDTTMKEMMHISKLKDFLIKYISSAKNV
endpoint_name: AC50

Illustrative cases are given below, each with its answer.
Cc1cnc(-c2cc(NS(=O)(=O)c3cc(C)c(Cl)cc3C)ccc2C)s1 [Example 103]    > 100 µM
Cc1cc(S(=O)(=O)Nc2cn(C)c(-c3ccccc3)n2)c(C)cc1Cl [Example 170]    > 10 µM
Cc1cc(S(=O)(=O)Nc2nc(-c3ccccc3)n(C)n2)c(C)cc1Cl [Example 180]    > 10 µM
Cc1cc(S(=O)(=O)Nc2csc(C(=O)N(C)CC(N)=O)n2)c(C)cc1Cl [Example 172]    > 100 µM
Cc1cc(S(=O)(=O)Nc2cn(-c3ccccc3)cn2)c(C)cc1Cl [Example 169]    > 100 µM

Continue with the compound presented below.
Prompt line: Please look up its AC50: Cc1cc(S(=O)(=O)Nc2cnn(-c3ccccc3)n2)c(C)cc1Cl [Example 171]
Response line: > 10 µM

Source: patent US20260138961A1
